assay: Viability Counterscreen for CMV-Luciferase Assay of Inhibitors of ATXN expression; settings: HEK-293 CMV-luciferase cells viability, protease fluorescence, 24 h; also: nearly all actives have a fitted effect of over 55% in size
Out of some 2,100 compounds screened, about 320 (15%) were called active. Inconclusive results (about 52%) are left out. Calls follow the shape of the dose curve; as a rule, active = well fitted cell-killing curve with a large enough effect; inconclusive = small, poorly fitted or top-dose-only effect, or effect the other way; inactive = flat fitted curve, though single readings scatter. The list shows a part of the results.
Select the correct class. Options are active, inactive and nothing else.

Solved cases below.
| MOLECULE | ANSWER LABEL |
| --- | --- |
| Cc1nc2ncnn2c(N2CCN(c3cccc(C(F)(F)F)c3)CC2)c1C | inactive |
| COc1ccc(CNC(=O)CSc2nc(-c3ccccc3)cc(-c3cccs3)c2C#N)cc1 | inactive |
| Cn1c(SCc2ccc(C(C)(C)C)cc2)nnc1C1COc2ccccc2O1 (configuration not stated) | inactive |

Hi, do you know how COc1ccc(O)c(/C=N/NC(=O)c2ccc(CSc3nc(C)cc(C)n3)cc2)c1 came out in this test?
inactive

Hi, do you know how COc1ccc2nc(C)cc(SCC(=O)N/N=C/c3ccc(O)cc3O)c2c1 came out in this test?
active

Hi, do you know how COc1cc(/C=C2\COC/C(=C\c3cc(OC)c(OC)c(OC)c3)C2=O)cc(OC)c1OC came out in this test?
active

Hi, do you know how COc1ccc(Cl)cc1NC(=O)Nc1cccc([N+](=O)[O-])c1C came out in this test?
inactive

Hi, do you know how O[C@@H]1[C@@H](O)C=C2CCN3Cc4cc5c(cc4[C@H]1C23)OCO5 (some centres not stated) came out in this test?
active

Hi, do you know how COc1ccc(NC(=O)c2cc(-c3cc(Cl)ccc3OC)n[nH]2)cc1OC came out in this test?
active

Hi, do you know how OC(c1ccc(Cl)cc1)c1ncc(-c2cccc(C(F)(F)F)c2)[nH]1 (configuration not stated) came out in this test?
inactive

Hi, do you know how CCOc1ccc(/C=N/NC(=O)C(O)c2ccccc2)c(O)c1 (configuration not stated) came out in this test?
inactive

Hi, do you know how O=C(N/N=C/c1ccc(O)cc1O)/C(=C/c1ccccc1)CCO came out in this test?
inactive

Hi, do you know how O=C(NN=Cc1ccc(O)cc1O)c1ccccc1NS(=O)(=O)c1cccs1 came out in this test?
inactive

Hi, do you know how c1ccc(CNc2nc(-c3ccccn3)nc3ccccc23)cc1 came out in this test?
active

Hi, do you know how CN1CCN(c2nc(-c3ccccn3)nc3ccccc23)CC1 came out in this test?
inactive

Hi, do you know how COc1cc(C#Cc2c(-c3cncn3C)n(C)c3ccc(-c4ccc(CN5CCOCC5)cc4)cc23)cc(OC)c1 came out in this test?
inactive

Hi, do you know how O=c1c2ccc(Cl)cc2nc(-c2cccc(C(F)(F)F)c2)n1O came out in this test?
active

---

test: Viability Counterscreen for CMV-Luciferase Assay of Inhibitors of ATXN expression; conditions: HEK-293 CMV-luciferase cells viability, protease fluorescence, 24 h; also: nearly all actives have a fitted effect of over 55% in size
The campaign covered roughly 2,100 compounds. About 320 (15%) were called active. Another 52% or so got no clear call; they are omitted. The call rests on the fitted dose curve; in most records, active means well fitted cell-killing curve with a large enough effect; inconclusive means small, poorly fitted or top-dose-only effect, or effect the other way; inactive means flat fitted curve, though single readings scatter. The list shows a part of the results.
Select the correct class. Options are 1 (yes) (active), 0 (no) (inactive) and nothing else.

Solved cases below.
| CPD SMILES | ANSWER LABEL |
| --- | --- |
| CCn1c2ccccc2c2cc(/C=C(/C#N)C(N)=S)ccc21 | 0 (no) |
| COc1ccc(O)c(/C=N/NC(=O)c2ccc(N3CCCC3=O)cc2)c1 | 0 (no) |
| COc1ccccc1-n1c(-c2ccccc2)c[n+]2c1CCc1ccccc1-2 | 1 (yes) |
| O=C(NCc1ccccc1C(F)(F)F)c1cccc2c1C(=O)c1ccc(N3CCC(N4CCCCC4)CC3)cc1S2(=O)=O | 0 (no) |

Below: the item to evaluate.
Hi, do you know how Cn1c(CCc2nc3ccccc3[nH]2)nnc1SCC#N came out in this test?
0 (no)

---

Test: Viability Counterscreen for CMV-Luciferase Assay of Inhibitors of ATXN expression; also: nearly all actives have a fitted effect of over 55% in size; also: potency is read from the fitted curve at half-maximal effect
Conditions: HEK-293 CMV-luciferase cells viability, protease fluorescence, 24 h
From the text: PI: Daniel Scoles Ph.D. University of Utah School of Medicine, Salt Lake City, Utah MLPCN Grant: NS073009 Spinocerebellar ataxia type 2 (SCA2) is a multisystem neurodegenerative disease caused by a dominantly acting mutation leading to expansion of a polyQ domain in the ataxin-2 protein (ATXN2). SCA2 patients develop progressive ataxia and later lose function in other neuronal systems. […] Here we describe a 5-7 dose quantitative high thoroughput screen (qHTS) for compounds lowering ATXN2 expression. […]
The whole screen tested about 2,100 compounds, of which about 320 (15%) were called active. Another 52% or so got no clear call; they are omitted. The list shows a part of the results.
EXPERIMENTAL READOUT: Potency

Sample records with Potency:
| COMPOUND | Potency |
| --- | --- |
| O=C(/C=C/NNC(=O)c1ccccc1)c1ccc([N+](=O)[O-])cc1 | 12.6 µM (active) |
| COc1cccc(/C=N/NC(=O)CC(C)O)c1OC/C=C/c1ccccc1 (stereo unspecified) | inactive |
| COc1cc(C(=O)OC(C)C(=O)N2CCc3ccccc3C2)ccc1OCC(=O)N1CCOCC1 (stereo unspecified) | inactive |
| Cc1ccc(C)n1-c1ccc(C(=O)N2CCC(C(N)=O)CC2)cc1 | inactive |

# per-item lookup of Potency; items listed below
1. O=S(=O)(c1ccc2nc(COc3ccc(Cl)cc3Cl)[nH]c2c1)N1CCOCC1
2. CCN(CC)CCCNc1nc2ccccc2c2nc(-c3ccncc3)nn12
3. COCCCn1c(-c2ccc(S(=O)(=O)N3CCOCC3)cc2)csc1=Nc1ccccc1
4. O=C(NNCc1ccccc1)c1ccccc1

1: inactive; 2: 15.8 µM (active); 3: inactive; 4: inactive

# per-item lookup of Potency; items listed below
1. Nc1ccc2c(c1)OC1(CCCC1)O2
2. Fc1ccc2[nH]c3c(N4CCSCC4)ncnc3c2c1
3. CCn1c(C)cc(C(=O)CN2C(=O)c3ccccc3S2(=O)=O)c1C

1: inactive; 2: 17.8 µM (active); 3: inactive

---

assay: Viability Counterscreen for CMV-Luciferase Assay of Inhibitors of ATXN expression; conditions: HEK-293 CMV-luciferase cells viability, protease fluorescence, 24 h; also: nearly all actives have a fitted effect of over 55% in size
The whole screen tested about 2,100 compounds, of which about 320 (15%) were called active. Roughly 52% stayed inconclusive and do not appear here. Calls follow the shape of the dose curve; as a rule, active = well fitted cell-killing curve with a large enough effect; inconclusive = small, poorly fitted or top-dose-only effect, or effect the other way; inactive = flat fitted curve, though single readings scatter. Some of the results follow.
Select the correct class. Options are true = active, false = inactive and nothing else.

| COMPOUND | ANSWER LABEL |
| --- | --- |
| NS(=O)(=O)c1ccc(Nc2nc(-c3ccc(F)cc3)cs2)cc1 | false |
| COc1cccc(S(=O)(=O)NCc2ccc(C(=O)Nc3cccc(Cl)c3)cc2)c1 | true |

Hi, do you know how COc1cc(CNCc2ccncc2)cc(Br)c1OCc1ccccc1F came out in this test?
false

Hi, do you know how CCc1cc[n+](C2=C([O-])c3ccccc3C(=O)/C2=N\S(=O)(=O)c2cccs2)cc1 came out in this test?
true

Hi, do you know how O=C1N(c2ccccc2)C[C@@H]2C[C@@H](c3cc4ccccc4o3)N3CCC[C@@]123 came out in this test?
true

Hi, do you know how CCOC(=O)COc1ccc(Br)cc1/C=C/c1[nH]c(=O)[nH]c(=O)c1[N+](=O)[O-] came out in this test?
false

Hi, do you know how COc1ccc2nc(C)c3c(c2c1)OC(C(C)(Cl)Br)C3 (configuration not stated) came out in this test?
false

---

assay: Viability Counterscreen for CMV-Luciferase Assay of Inhibitors of ATXN expression; conditions: HEK-293 CMV-luciferase cells viability, protease fluorescence, 24 h; also: nearly all actives have a fitted effect of over 55% in size
The whole screen tested about 2,100 compounds, of which about 320 (15%) were called active. Inconclusive results (about 52%) are left out. Calls come from the whole dose curve; as a rule, active = well fitted cell-killing curve with a large enough effect; inconclusive = small, poorly fitted or top-dose-only effect, or effect the other way; inactive = flat fitted curve, though single readings scatter. The list shows a part of the results.
Select the correct class. Options are True = active, False = inactive and nothing else.

Solved cases below.
| COMPOUND | ANSWER LABEL |
| --- | --- |
| CN(Cc1ccccc1)C(=O)c1ccc(Nc2nc(C(N)Cc3ccccc3)cs2)nc1 (stereo not given) | True |
| Cc1ccc(C(=O)N2CCN(c3ccc(NC(=S)NC(=O)c4cccs4)cc3)CC2)cc1 | False |
| NC(=O)c1cccc(Nc2nc(C(N)Cc3ccc(C(F)(F)F)cc3)cs2)n1 (stereo not given) | False |
| CC(C)=C1SC(N2CCN(c3ccc(C)c(Cl)c3)CC2)=NC1=O | False |
| O=S(=O)(Cc1cc(NCc2ccccc2)nc(-c2ccccn2)n1)c1ccccc1 | False |
| COc1ccccc1C(CCNCc1ccccc1)c1ccc(OC(C)C)cc1 (stereo not given) | False |
| COc1ccccc1NC(=S)NC(=O)c1ccc(Cn2cc(Br)cn2)cc1 | False |
| COc1ccc(CC(N)c2csc(Nc3ccc(C(=O)c4ccccc4)cc3)n2)cc1 (stereo not given) | False |

Hi, do you know how COc1c(C)cccc1C(=O)Nc1ccc(N2CCN(C(=O)c3ccccc3C)CC2)cc1 came out in this test?
True

Hi, do you know how CC(C)=CCc1c(O)cc2oc3c(CC=C(C)C)c(O)c(O)c(CC=C(C)C)c3c(=O)c2c1O came out in this test?
False

Each recorded value in this set is attributed to PubChem BioAssay AID1745849.
